target: human CD33 T240A (human, UniProt P20138 18-364); assay: alanine scan, flow cytometry, HEK293-T;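 note: antibody binding to each alanine-substituted CD33 mutant expressed transiently in HEK293-T, read as fluorescence minus background, mean of duplicates, relative to wild-type CD33 set as 100%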
Sequence (P20138 18-364 T240A limits assumed): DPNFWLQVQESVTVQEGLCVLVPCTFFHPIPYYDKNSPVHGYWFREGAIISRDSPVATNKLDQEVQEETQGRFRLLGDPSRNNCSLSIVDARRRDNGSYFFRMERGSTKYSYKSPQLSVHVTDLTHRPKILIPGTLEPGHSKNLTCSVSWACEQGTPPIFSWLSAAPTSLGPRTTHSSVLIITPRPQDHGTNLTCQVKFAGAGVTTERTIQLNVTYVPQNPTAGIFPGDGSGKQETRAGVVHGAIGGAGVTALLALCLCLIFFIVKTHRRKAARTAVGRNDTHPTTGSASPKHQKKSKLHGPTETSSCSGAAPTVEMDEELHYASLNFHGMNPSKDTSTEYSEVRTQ
In this section, each of the binders is paired with its reported Mean % WT Binding.

binder: Refmab #4 (antibody, V domains shown, In the alanine scan antibodies were used as IgG or Fab) VH: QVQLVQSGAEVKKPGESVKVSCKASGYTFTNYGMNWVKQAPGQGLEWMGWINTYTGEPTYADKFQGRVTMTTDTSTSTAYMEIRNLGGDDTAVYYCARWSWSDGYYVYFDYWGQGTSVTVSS VL: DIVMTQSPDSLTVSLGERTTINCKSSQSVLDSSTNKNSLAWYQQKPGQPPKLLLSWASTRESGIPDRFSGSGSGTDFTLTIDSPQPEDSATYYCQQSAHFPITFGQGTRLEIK
Mean % WT Binding: 76.8%

binder: Refmab #3 (antibody, V domains shown, In the alanine scan antibodies were used as IgG or Fab) VH: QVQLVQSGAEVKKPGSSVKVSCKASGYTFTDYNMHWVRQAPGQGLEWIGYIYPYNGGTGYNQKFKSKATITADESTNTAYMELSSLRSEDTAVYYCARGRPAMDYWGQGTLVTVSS VL: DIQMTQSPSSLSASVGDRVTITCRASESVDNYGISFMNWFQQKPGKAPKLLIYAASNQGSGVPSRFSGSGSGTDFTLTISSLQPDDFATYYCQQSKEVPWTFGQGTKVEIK
Mean % WT Binding: 97.9%

binder: Refmab #2 (antibody, V domains shown, In the alanine scan antibodies were used as IgG or Fab) VH: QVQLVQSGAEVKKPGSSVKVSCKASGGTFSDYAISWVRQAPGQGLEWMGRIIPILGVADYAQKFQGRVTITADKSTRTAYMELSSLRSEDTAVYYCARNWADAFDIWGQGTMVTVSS VL: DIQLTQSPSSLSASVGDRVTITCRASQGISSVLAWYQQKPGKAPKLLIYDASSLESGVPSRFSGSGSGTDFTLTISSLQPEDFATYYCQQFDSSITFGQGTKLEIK
Mean % WT Binding: 111%

binder: Refmab #1 (antibody, V domains shown, In the alanine scan antibodies were used as IgG or Fab; also called hP67.6) VH: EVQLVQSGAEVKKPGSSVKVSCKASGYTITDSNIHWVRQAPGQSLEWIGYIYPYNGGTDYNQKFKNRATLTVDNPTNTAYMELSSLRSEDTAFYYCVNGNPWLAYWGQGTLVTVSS VL: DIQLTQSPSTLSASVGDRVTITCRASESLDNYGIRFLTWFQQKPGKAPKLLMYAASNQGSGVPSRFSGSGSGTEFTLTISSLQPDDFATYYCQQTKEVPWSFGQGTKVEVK
Mean % WT Binding: 111%

Values were extracted from patent US20260242735A1.
